Ref: patent US20080207900A1

For each record, write down the corresponding Aβ42 production reducing activity.
# System: Aβ42 production
# protocol: Quantitation of Aβ peptide in neuronal cell culture derived from a rat fetal brain (Aβ ELISA)
# Assay type: cell-based
# stated conditions: rat primary neuronal cell culture (cerebral cortex, 18-day embryos); medium recovered 3 days after adding the compound; Aβx-42 ELISA; test concentration not given

Using the record for `COc1cc(/C=C2\O[C@@H](C)[C@H]3CC[C@@H](c4ccc(Cl)cc4)N3C2=O)ccc1-n1cnc(C)c1` , state its measured Aβ42 production reducing activity. 95 % of CTRL

Determine its reported Aβ42 production reducing activity: `COc1cc(/C=C2\O[C@@H](C)[C@H]3CCC[C@@H](c4cc(F)c(F)c(F)c4)N3C2=O)ccc1-n1cnc(C)c1` 53 % of CTRL

Give Aβ42 production reducing activity for `COc1cc(/C=C2\OC(C)(C)[C@H]3CC[C@@H](c4ccc(Cl)cc4)N3C2=O)ccc1-n1cnc(C)c1` 74 % of CTRL

Annotate the compound `COc1cc(/C=C2\O[C@@H](C)[C@H]3COC[C@@H](c4cc(F)c(F)c(F)c4)N3C2=O)ccc1-n1cnc(C)c1` with its measured Aβ42 production reducing activity. 52 % of CTRL

Please give measured Aβ42 production reducing activity of the following entry: `COc1cc(/C=C2\O[C@@H](C)[C@H]3CC[C@@H](c4cc(F)c(F)c(F)c4)N3C2=O)ccc1-n1cnc(C)c1` 91 % of CTRL

Return Aβ42 production reducing activity for the following compound: `COc1cc(/C=C2\OC(C)(C)[C@H]3COC[C@@H](c4cc(F)c(F)c(F)c4)N3C2=O)ccc1-n1cnc(C)c1` 42 % of CTRL

Assign Aβ42 production reducing activity to the following record: `COc1cc(/C=C2\OC(C)(C)[C@H]3CC[C@@H](c4cc(F)c(F)c(F)c4)N3C2=O)ccc1-n1cnc(C)c1` 67 % of CTRL
